Entries and their measured MIC80 follow.
- Tested on: Candida tropicalis
- TEST SUMMARY: Antifungal activity against clinical strain Candida tropicalis by microplate reader assay
- Type: functional
Express the result in µg/mL but write the number alone.

Solved cases below.
>  <MOLECULE>
OC(Cn1cncn1)(Cn1cncn1)c1ccc(F)cc1F

>  <UNIT TEXT>
µg/mL

>  <MIC80>
1

$$$$
>  <MOLECULE>
C=C(C)CCC[C@]1(C)OC(=O)[C@]23CC[C@@H]4C(=CCC5C(C)(C)[C@@H](O[C@@H]6OC[C@@H](OS(=O)(=O)O)[C@H](O)[C@H]6O[C@@H]6O[C@H](C)[C@@H](O[C@@H]7OC[C@@H](O)[C@H](O[C@@H]8O[C@H](CO)[C@@H](O)[C@H](OC)[C@H]8O)[C@H]7OS(=O)(=O)O)[C@H](O)[C@H]6O)CC[C@@]54C)[C@]2(C)C[C@H](OC(C)=O)[C@@H]31.[Na+].[Na+].[Na+] (some centres not stated)

>  <UNIT TEXT>
µg/mL

>  <MIC80>
8

$$$$
>  <MOLECULE>
C=C(C)CCC[C@]1(C)OC(=O)[C@]23CC[C@@H]4C(=CCC5C(C)(C)[C@@H](O[C@@H]6OC[C@@H](OS(=O)(=O)[O-])[C@H](O)[C@H]6O[C@@H]6O[C@H](C)[C@@H](O[C@@H]7OC[C@@H](O)[C@H](O[C@@H]8O[C@H](CO)[C@@H](O)[C@H](OC)[C@H]8O)[C@H]7O)[C@H](O)[C@H]6O)CC[C@@]54C)[C@]2(C)C[C@H](OC(C)=O)[C@@H]31.[Na+] (some centres not stated)

>  <UNIT TEXT>
µg/mL

>  <MIC80>
8

$$$$
>  <MOLECULE>
C=C(C)CCC[C@]1(C)OC(=O)[C@]23CC[C@@H]4C(=CCC5C(C)(C)[C@@H](O[C@@H]6OC[C@@H](OS(=O)(=O)[O-])[C@H](O)[C@H]6O[C@@H]6O[C@H](C)[C@@H](O[C@@H]7OC[C@@H](O)[C@H](O[C@@H]8O[C@H](CO)[C@@H](O)[C@H](OC)[C@H]8O)[C@H]7O)[C@H](O)[C@H]6O)CC[C@@]54C)[C@]2(C)CC(=O)[C@@H]31.[Na+] (some centres not stated)

>  <UNIT TEXT>
µg/mL

>  <MIC80>
25

$$$$
>  <MOLECULE>
CO[C@@H]1[C@@H](O)[C@H](O[C@@H]2[C@@H](O)[C@H](O[C@H]3[C@H](O)[C@@H](O)[C@H](O[C@H]4[C@H](O[C@H]5CC[C@@]6(C)C(CC=C7[C@H]6CC[C@]68C(=O)O[C@@](C)(CCC=C(C)C)[C@H]6[C@@H](OC(C)=O)C[C@@]78C)C5(C)C)OC[C@@H](OS(=O)(=O)[O-])[C@@H]4O)O[C@@H]3C)OC[C@H]2O)O[C@H](CO)[C@H]1O.[Na+] (some centres not stated)

>  <UNIT TEXT>
µg/mL

>  <MIC80>
30

$$$$

Value wanted: MIC80 (Candida tropicalis) of entry CCC(C)n1ncn(-c2ccc(N3CCN(c4ccc(OCC5COC(Cn6cncn6)(c6ccc(Cl)cc6Cl)O5)cc4)CC3)cc2)c1=O (configuration not stated)
1

Where these numbers come from: ChEMBL document CHEMBL4811272
